- target-system: N-terminally FLAG-tagged PARP2 (amino acids 1-583) (Homo sapiens, UniProt Q9UGN5)
- Construct: N-terminally FLAG-tagged PARP2 (amino acids 1-583)
- Sequence (Q9UGN5 whole entry, the tested form may be a part): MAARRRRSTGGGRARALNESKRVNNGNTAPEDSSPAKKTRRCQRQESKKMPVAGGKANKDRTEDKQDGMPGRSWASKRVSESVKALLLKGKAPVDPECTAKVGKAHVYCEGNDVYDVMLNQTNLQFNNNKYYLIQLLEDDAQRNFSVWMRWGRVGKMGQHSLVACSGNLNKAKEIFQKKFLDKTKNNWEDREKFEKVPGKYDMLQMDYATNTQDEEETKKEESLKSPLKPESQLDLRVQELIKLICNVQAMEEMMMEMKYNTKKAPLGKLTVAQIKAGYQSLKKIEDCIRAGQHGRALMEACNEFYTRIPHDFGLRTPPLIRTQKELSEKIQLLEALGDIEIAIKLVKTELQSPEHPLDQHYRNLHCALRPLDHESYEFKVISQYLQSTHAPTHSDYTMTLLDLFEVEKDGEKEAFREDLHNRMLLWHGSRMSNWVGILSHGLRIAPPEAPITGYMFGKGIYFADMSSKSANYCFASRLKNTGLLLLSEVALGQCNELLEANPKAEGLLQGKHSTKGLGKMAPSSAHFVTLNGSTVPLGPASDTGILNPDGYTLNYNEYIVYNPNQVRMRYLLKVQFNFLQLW
- protocol-details: PARP2 probe displacement HTRF assay
- Assay type: binding
- applied-conditions: binned Kd, probe displacement HTRF
Kd values, listed per item
recorded-metric: Kd

1) CNC(=O)c1ccc(N2CCC(N3CCC(c4[nH]c(=O)c5c(F)cccc5c4F)C3)CC2)c(F)n1 (single isomer, unassigned) [Compound 402b]	10 to 100 nM
2) CNC(=O)c1ccc(N2CCC(N3CC4(c5nc6ncccc6c(=O)[nH]5)CC3C4)CC2)c(F)n1 [Compound 303]	> 10000 nM
3) CC(=O)Nc1ccc(N2CCC(N3CCC(c4nc5ccccc5c(=O)[nH]4)C3)CC2)cn1 (single isomer, unassigned) [Compound 262a]	1000 to 10000 nM
4) CNC(=O)c1ccc(N2CCC(N3CCC(c4[nH]c(=O)c5ccccc5c4F)C3)CC2)cn1 (racemic) [Compound 258rac]	100 to 1000 nM
5) CNC(=O)c1ccc(N2CCC(N3CC4(c5nc6ccc(F)cc6c(=O)[nH]5)CC3C4)CC2)cn1 [Compound 238]	100 to 1000 nM
6) CCc1ccc(C2CCN(C3CCN(c4ccc(C(=O)NCC(F)F)nc4F)CC3)C2)[nH]c1=O (single isomer, unassigned) [Compound 398a]	1000 to 10000 nM
7) CNC(=O)c1ccc(N2CCC(N3CC4(c5nc6cccc(C(F)(F)F)c6c(=O)[nH]5)CC3C4)CC2)cn1 [Compound 394]	10 to 100 nM
8) CNC(=O)c1ncc(N2CCC(N3CCC(c4cc5ccc(F)cc5c(=O)[nH]4)C3)CC2)c(Cl)n1 (racemic) [Compound 400rac]	100 to 1000 nM
9) O=C(NCC(F)F)c1ccc(N2CCC(N3CCC(c4cc5ccc(F)cc5c(=O)[nH]4)C3)CC2)c(F)n1 (single isomer, unassigned) [Compound 399b]	10 to 100 nM
10) CCc1ccc(C2CCN(C3CCN(c4ccc(C(=O)NC)nc4Cl)CC3)C2)[nH]c1=O (single isomer, unassigned) [Compound 239b]	1000 to 10000 nM
11) CNC(=O)c1ccc(N2CCC(N3CCC(c4nc5c(C)scc5c(=O)[nH]4)C3)CC2)cn1 (single isomer, unassigned) [Compound 232a]	100 to 1000 nM
12) CCc1ccc(C2CCN(C3CCN(c4ccc(C(=O)NC)cc4F)CC3)C2)[nH]c1=O (single isomer, unassigned) [Compound 366b]	100 to 1000 nM
13) N#Cc1ccc(N2CCC(N3CCC(c4cc5cccc(F)c5c(=O)[nH]4)C3)CC2)nc1 (single isomer, unassigned) [Compound 340b]	100 to 1000 nM

---

- target-system: N-terminally FLAG-tagged PARP2 (amino acids 1-583) (Homo sapiens, UniProt Q9UGN5)
- Construct: N-terminally FLAG-tagged PARP2 (amino acids 1-583)
- protocol-details: PARP2 probe displacement HTRF assay
- Assay type: binding
- applied-conditions: binned Kd, PARP2 probe displacement HTRF
pKd: −log10 of the molar value.
recorded-metric: pKd

1) CNC(=O)c1ccc(N2CCC(N3CCCC(c4nc5c(c(C(F)(F)F)nn5C)c(=O)[nH]4)C3)CC2)cn1 (single isomer, unassigned) [Compound 190b]	7.00 to 8.00
2) CNC(=O)c1ccc(N2CCC(N3CCCC(c4nc5c(F)cccc5c(=O)[nH]4)C3)CC2)cn1 (single isomer, unassigned) [Compound 114b]	5.00 to 6.00
3) CCc1ccc(C2CCN(C3CCN(c4ccc(C(N)=O)nc4)CC3)C2)[nH]c1=O (racemic)	5.00 to 6.00
4) CNC(=O)c1ccc(N2CCC(N3CCC(c4cc5cccc(Cl)c5c(=O)[nH]4)C3)CC2)cn1 (single isomer, unassigned) [Compound 128b]	7.00 to 8.00
5) CNC(=O)c1ccc(N2CC(N3CCCC(Cc4nc5ccccc5c(=O)[nH]4)C3)C2)cn1 (single isomer, unassigned) [Compound 51a]	< 5.00
6) CNC(=O)c1ccc(N2CCC(N3CCC(c4nc5c(F)ccc(F)c5c(=O)[nH]4)C3)CC2)cn1 (single isomer, unassigned) [Compound 182a]	6.00 to 7.00

---

- target-system: N-terminally FLAG-tagged PARP2 (amino acids 1-583) (Homo sapiens, UniProt Q9UGN5)
- Construct: N-terminally FLAG-tagged PARP2 (amino acids 1-583)
- protocol-details: PARP2 probe displacement HTRF assay
- Format: binding
- applied-conditions: binned Kd, PARP2 probe displacement HTRF
pKd: −log10 of the molar value.
Measured pKd, listed per entry for reference.
recorded-metric: pKd

1. CNC(=O)c1ccc(N2CCC(n3cc(-c4nc5ccccc5c(=O)[nH]4)cn3)CC2)cn1	< 5.00
2. CNC(=O)c1ccc(N2CCC(N3CC4CC(c5nc6ccccc6c(=O)[nH]5)(C4)C3)CC2)cn1	< 5.00
3. O=C(NCCF)c1ccc(N2CCC(N3CCCC(c4nc5ccccc5c(=O)[nH]4)C3)CC2)cn1 (single isomer, unassigned) [Compound 110a]	< 5.00
4. CNC(=O)c1ccc(N2CCC(N3CCCC(c4nc5cccc(F)c5c(=O)[nH]4)C3)CC2)cn1 (single isomer, unassigned) [Compound 88b]	5.00 to 6.00
5. O=c1[nH]c(C2CCCN(C3CCN(c4ccc(F)cc4F)CC3)C2)nc2ccccc12 (single isomer, unassigned) [Compound 113a]	6.00 to 7.00
6. CNC(=O)c1ccc(F)c(N2CCC(N3CCCC(c4nc5ccccc5c(=O)[nH]4)C3)CC2)n1 (racemic)	5.00 to 6.00
7. CNC(=O)c1ccc(N2CCC(N3CCC(c4nc5c(c(=O)[nH]4)CCCN5)C3)CC2)cn1 (single isomer, unassigned) [Compound 214b]	6.00 to 7.00
8. CNC(=O)c1ccc(N2CCC(N3CCCC(c4nc5c(c(=O)[nH]4)CCCC5)C3)CC2)cn1 (single isomer, unassigned) [Compound 146a]	5.00 to 6.00
9. CNC(=O)c1cc(C)c(N2CCC(N3CCC(c4cc5ccccc5c(=O)[nH]4)C3)CC2)c(C)n1 (single isomer, unassigned) [Compound 205a]	< 5.00
10. CNC(=O)c1ccc(N2CCC(N3CCC(c4cc5cccc(Cl)c5c(=O)[nH]4)C3)CC2)cn1 (single isomer, unassigned) [Compound 128a]	5.00 to 6.00
11. CCc1ccc(C2CCN(C3CCN(c4ccc(C(=O)NC)nc4C)CC3)C2)[nH]c1=O (single isomer, unassigned) [Compound 133b]	< 5.00
12. N#Cc1ccc(N2CCC(N3CCCC(c4nc5ccccc5c(=O)[nH]4)C3)CC2)cn1 (single isomer, unassigned) [Compound 70b]	6.00 to 7.00
13. CNC(=O)c1ccc(N2CCC(N3CCC(c4ccc(OC)c(=O)[nH]4)C3)CC2)cn1 (single isomer, unassigned) [Compound 148b]	< 5.00

---

- target-system: PARP1 (Homo sapiens)
- Sequence (P09874 whole entry): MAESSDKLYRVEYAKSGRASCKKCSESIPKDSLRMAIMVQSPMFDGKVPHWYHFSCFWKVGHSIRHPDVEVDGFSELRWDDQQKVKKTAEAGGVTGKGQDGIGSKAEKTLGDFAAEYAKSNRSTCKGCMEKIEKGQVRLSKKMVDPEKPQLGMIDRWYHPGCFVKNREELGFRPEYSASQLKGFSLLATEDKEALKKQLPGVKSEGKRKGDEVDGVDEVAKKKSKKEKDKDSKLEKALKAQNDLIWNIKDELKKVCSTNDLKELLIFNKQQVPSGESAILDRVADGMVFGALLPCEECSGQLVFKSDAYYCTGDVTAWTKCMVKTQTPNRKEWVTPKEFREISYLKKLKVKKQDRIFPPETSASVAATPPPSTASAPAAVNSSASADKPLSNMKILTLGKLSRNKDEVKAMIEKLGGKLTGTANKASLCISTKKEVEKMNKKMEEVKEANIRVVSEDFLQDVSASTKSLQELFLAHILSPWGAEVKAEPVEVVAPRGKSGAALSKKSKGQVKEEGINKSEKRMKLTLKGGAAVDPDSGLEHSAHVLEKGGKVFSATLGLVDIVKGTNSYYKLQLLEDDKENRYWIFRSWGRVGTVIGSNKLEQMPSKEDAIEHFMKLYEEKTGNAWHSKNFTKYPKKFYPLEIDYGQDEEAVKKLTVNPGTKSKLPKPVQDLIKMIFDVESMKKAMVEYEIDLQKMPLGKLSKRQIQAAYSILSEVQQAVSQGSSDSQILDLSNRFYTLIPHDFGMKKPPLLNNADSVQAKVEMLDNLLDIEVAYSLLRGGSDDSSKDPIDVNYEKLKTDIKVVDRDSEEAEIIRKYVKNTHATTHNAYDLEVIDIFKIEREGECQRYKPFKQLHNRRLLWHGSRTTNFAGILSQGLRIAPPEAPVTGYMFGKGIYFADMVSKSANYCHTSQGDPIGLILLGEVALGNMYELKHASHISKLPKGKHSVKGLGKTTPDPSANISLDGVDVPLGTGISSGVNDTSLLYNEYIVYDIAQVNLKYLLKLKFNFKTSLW
- protocol-details: NanoBRET cellular target occupancy assay, PARP1
- applied-conditions: HEK293 cells transiently transfected with PARP1-NanoLuc fusion; tracer 11 nM; 2 hours at 37° C.; Kd by Cheng-Prussoff
pKd: −log10 of the molar value.
recorded-metric: pKd

1) CNC(=O)c1ccc(N2CCC(N3CCC(c4cc5ccc(F)cc5c(=O)[nH]4)C3)CC2)nn1 (single isomer, unassigned) [Compound 197a]	> 8.00
2) CNC(=O)c1ccc(N2CCC(N3CC4(c5nc6cccc(F)c6c(=O)[nH]5)CC3C4)CC2)c(F)n1	> 8.00
3) CNC(=O)c1ccc(N2CCC(N3CCC(c4nc5ccccc5c(=O)[nH]4)C3)CC2)cn1 (single isomer, unassigned) [Compound 10b]	> 8.00
4) CNC(=O)c1ccc(N2CCC(N3CCC(c4cc5ncc(F)cc5c(=O)[nH]4)C3)CC2)c(F)n1 (racemic)	> 8.00
5) CCc1cnc(C23CC(C2)N(C2CCN(c4ccc(C(=O)NC)nc4)CC2)C3)[nH]c1=O	7.00 to 8.00
6) CNC(=O)c1ccc(N2CCC(N3CCC(c4ccc(CC5CC5)c(=O)[nH]4)C3)CC2)c(F)n1 (single isomer, unassigned) [Compound 313b]	> 8.00
7) CNC(=O)c1ccc(N2CCC(N3CCC(c4nc5[nH]cc(C(F)(F)F)c5c(=O)[nH]4)C3)CC2)cn1 (racemic)	7.00 to 8.00
8) N#Cc1ccc(N2CCC(N3CCC(c4cc5cccc(F)c5c(=O)[nH]4)C3)CC2)cn1 (single isomer, unassigned) [Compound 316a]	> 8.00
9) CNC(=O)c1ccc(N2CCC(N3CC4(c5nc6c(c(=O)[nH]5)CCC6)CC3C4)CC2)c(F)n1	7.00 to 8.00
10) CNC(=O)c1ccc(N2CCC(N3CCC(c4cc5ccc(Cl)cc5c(=O)[nH]4)C3)CC2)cn1 (single isomer, unassigned) [Compound 129b]	> 8.00
11) CNC(=O)c1ccc(N2CCC(N3CCC(c4cc5ccc(F)cc5c(=O)[nH]4)C3)CC2)c(F)n1 (racemic) [Compound 174rac]	> 8.00
12) CNC(=O)c1ccc(N2CCC(N3CCC(c4nc5ccccc5c(=O)[nH]4)C3)CC2)c(F)n1 (racemic)	> 8.00
13) CCc1ccc(C2CCN(C3CCN(c4ccc(C(=O)NCC(F)F)nc4)CC3)C2)[nH]c1=O (single isomer, unassigned) [Compound 354b]	> 8.00

Where do these numbers come from? They come from patent US20250152585A1.
